Taken from patent US8530470B2.

target-entity: PI3Kβ (Homo sapiens, UniProt P42338)
Sequence (P42338 whole entry): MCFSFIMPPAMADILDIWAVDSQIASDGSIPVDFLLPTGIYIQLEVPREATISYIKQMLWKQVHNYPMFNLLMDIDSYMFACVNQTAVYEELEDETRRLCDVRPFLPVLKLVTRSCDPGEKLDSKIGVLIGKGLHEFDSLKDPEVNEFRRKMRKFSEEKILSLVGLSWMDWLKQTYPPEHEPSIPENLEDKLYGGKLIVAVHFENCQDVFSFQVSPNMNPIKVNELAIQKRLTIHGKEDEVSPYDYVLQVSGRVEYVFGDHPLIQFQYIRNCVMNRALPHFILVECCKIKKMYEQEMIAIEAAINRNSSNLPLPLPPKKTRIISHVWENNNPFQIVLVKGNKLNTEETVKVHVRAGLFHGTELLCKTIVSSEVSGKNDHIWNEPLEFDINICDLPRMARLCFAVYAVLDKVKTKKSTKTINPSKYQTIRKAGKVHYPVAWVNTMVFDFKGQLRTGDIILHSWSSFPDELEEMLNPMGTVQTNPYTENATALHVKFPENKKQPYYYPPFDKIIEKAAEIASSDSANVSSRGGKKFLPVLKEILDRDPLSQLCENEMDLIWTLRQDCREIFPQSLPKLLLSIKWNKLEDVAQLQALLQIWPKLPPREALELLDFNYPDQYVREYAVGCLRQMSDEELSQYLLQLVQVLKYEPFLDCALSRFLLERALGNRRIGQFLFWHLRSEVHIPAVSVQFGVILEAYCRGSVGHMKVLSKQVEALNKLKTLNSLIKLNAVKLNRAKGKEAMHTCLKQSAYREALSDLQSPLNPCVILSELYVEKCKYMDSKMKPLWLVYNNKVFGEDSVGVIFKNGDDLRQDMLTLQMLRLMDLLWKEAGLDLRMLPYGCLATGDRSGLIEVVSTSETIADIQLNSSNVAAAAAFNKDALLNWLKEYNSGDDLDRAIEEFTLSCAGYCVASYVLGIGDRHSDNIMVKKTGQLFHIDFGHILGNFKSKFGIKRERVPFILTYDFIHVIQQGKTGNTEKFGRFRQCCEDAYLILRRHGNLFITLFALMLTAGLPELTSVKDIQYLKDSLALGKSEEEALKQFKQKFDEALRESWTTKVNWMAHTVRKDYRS
Sequence (P27986 whole entry partner): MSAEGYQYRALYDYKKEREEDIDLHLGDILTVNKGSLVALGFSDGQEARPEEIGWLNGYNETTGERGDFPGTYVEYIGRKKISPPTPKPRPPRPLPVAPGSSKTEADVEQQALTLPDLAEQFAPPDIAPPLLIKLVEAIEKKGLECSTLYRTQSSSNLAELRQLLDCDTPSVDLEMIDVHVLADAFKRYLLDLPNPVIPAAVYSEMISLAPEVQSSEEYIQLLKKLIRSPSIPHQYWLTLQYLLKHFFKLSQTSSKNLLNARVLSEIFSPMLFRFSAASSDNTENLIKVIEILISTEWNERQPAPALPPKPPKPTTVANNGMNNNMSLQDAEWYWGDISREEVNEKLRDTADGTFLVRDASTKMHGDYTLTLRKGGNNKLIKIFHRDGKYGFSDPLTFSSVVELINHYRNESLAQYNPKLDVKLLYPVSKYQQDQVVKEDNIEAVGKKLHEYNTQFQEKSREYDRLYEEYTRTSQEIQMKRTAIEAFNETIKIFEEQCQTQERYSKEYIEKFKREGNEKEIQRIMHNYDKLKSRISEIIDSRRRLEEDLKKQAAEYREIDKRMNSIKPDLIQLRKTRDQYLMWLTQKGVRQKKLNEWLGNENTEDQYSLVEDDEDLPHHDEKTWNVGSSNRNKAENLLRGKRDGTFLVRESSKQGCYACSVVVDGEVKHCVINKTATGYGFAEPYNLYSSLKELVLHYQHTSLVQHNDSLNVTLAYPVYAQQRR
assay-protocol: In vitro enzyme inhibition assay (Kinase Glo), PI3Kβ
Type: biochemical
condition-notes: Test (a); approximate value; read-out: IC50 versus PI3Kβ

compound | IC50
CN(C)C(=O)c1cc(C2CCCN2c2cccc(F)c2)c2oc(N3CCOCC3)cc(=O)c2c1 (stereo not shown) | ~9 nM
CN(C)C(=O)c1cc([C@H]2CCCN2c2cccc(F)c2)c2oc(N3CCOCC3)cc(=O)c2c1 | ~7 nM
CN1CCN(C(=O)c2cc([C@H]3CCCN3c3cccc(F)c3)c3oc(N4CCOCC4)cc(=O)c3c2)CC1 | ~8 nM
C[C@@H]1CN(c2cc(=O)c3cc(C(=O)N4CCOCC4)cc(C4CCCN4c4cc(F)cc(F)c4)c3o2)CCO1 (stereo partly shown) | ~11 nM
O=C(c1cc(C2CCCN2c2cc(F)cc(F)c2)c2oc(N3CCOCC3)cc(=O)c2c1)N1CCOCC1 (racemic) | ~12 nM
C[C@@H]1CN(c2cc(=O)c3cc(C(=O)N(C)C)cc(C4CCCN4c4cccc(F)c4)c3o2)CCO1 (stereo partly shown) | ~10 nM
O=C(c1cc(C2CCCN2c2cc(F)cc(F)c2)c2oc(N3CCOCC3)cc(=O)c2c1)N1CC[S+]([O-])CC1 (stereo not shown) | ~11 nM
O=C(c1cc([C@@H]2CCCN2c2cc(F)cc(F)c2)c2oc(N3CCOCC3)cc(=O)c2c1)N1CCOCC1 [Example 1.03a] | ~198 nM
O=C(c1cc([C@H]2CCCN2c2cc(F)cc(F)c2)c2oc(N3CCOCC3)cc(=O)c2c1)N1CCOCC1 [Example 1.03b] | ~7 nM
COc1cccc(N2CCC[C@@H]2c2cc(C(=O)N3CCOCC3)cc3c(=O)cc(N4CCOCC4)oc23)c1 | ~9 nM
C[C@@H]1CN(c2cc(=O)c3cc(C(=O)N4CCOCC4)cc(C4CCCN4c4cccc(F)c4)c3o2)CCO1 (stereo partly shown) | ~14 nM
O=C(c1cc([C@H]2CCCN2c2cccc(F)c2)c2oc(N3CCOCC3)cc(=O)c2c1)N1CCC1 | ~6 nM
O=C(c1cc([C@H]2CCCN2c2cc(F)cc(F)c2)c2oc(N3CCOCC3)cc(=O)c2c1)N1CCC1 | ~7 nM
